Biological target: EGFR T790M/L858R kinase domain (Homo sapiens, UniProt P00533, L858R/T790M)
Construct: EGFR (amino acids 696-1022, T790M, L858R)
Sequence (P00533 696-1022 T790M/L858R): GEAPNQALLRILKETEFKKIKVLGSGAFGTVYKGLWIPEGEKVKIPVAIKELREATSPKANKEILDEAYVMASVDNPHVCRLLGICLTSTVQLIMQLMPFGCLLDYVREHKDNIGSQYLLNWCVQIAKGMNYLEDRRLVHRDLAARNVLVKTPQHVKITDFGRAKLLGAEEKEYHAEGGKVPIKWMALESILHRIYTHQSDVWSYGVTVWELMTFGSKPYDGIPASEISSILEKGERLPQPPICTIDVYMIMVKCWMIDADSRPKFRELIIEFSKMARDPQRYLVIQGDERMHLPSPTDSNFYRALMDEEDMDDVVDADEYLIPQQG
Test: EGFR cellular target engagement assay (HEK293 cells stable for EGFR T790M, L858R)
Details: 6 hours, read-out: TE50 (the source's name)
PARAMETER: EC50

Query string: Return reported EC50; argument: C=C(COc1cc(Cl)cc(NC(=O)NCc2ccc3c(c2)CN(C2CCC(=O)NC2=O)C3=O)c1)C(=O)Nc1cccc(-c2cccc3cnc(Nc4ccc(N5CCN(CCO)CC5)c(F)c4F)nc23)c1 (stereo not shown) [Compound I-61]
Result string: > 10 µM

Query string: Follow-up item: C=C(CN(C(=O)NCc1ccc2c(c1)CN(C1CCC(=O)NC1=O)C2=O)c1ccc(C)c(Cl)c1)C(=O)Nc1cc(Nc2ncc(-c3cn(C)c4ccccc34)cn2)c(OC)cc1N(C)CCN(C)C (stereo not shown) [Compound I-42]
Result string: 5 to 10 µM

Query string: Follow-up item: C=C(COc1cc(Cl)cc(NC(=O)NCc2ccc3c(c2)CN(C2CCC(=O)NC2=O)C3=O)c1)C(=O)N1C[C@H](COc2nc(Nc3cnn(C)c3)nc3[nH]cc(Cl)c23)[C@@H](OC)C1 (stereo partly shown) [Compound I-54]
Result string: 0.25 to 5 µM

Query string: Follow-up item: C=C(COC(=O)n1c(CNc2nc(N3CCNCC3)nc3c(Br)cnn23)nc2cc(C)ccc21)C(=O)N1C[C@H](COc2nc(Nc3cnn(C)c3)nc3[nH]cc(Cl)c23)[C@@H](OC)C1 [Compound V-4]
Result string: > 10 µM

Query string: Follow-up item: C=C(CN1CCN(c2nc(NCc3nc4cc(C)ccc4[nH]3)n3ncc(Br)c3n2)CC1)C(=O)Nc1cccc(-c2cccc3cnc(Nc4ccc(N5CCN(CCO)CC5)c(F)c4F)nc23)c1 [II-191]
Result string: > 10 µM

Query string: Follow-up item: C=C(COc1cc(-c2ccccn2)ccc1CNc1nc(N[C@H](CC)CO)nc2c1ncn2C(C)C)C(=O)N[C@@H]1CN(c2nc(Nc3cn(C)nc3OC)c3ncn(C)c3n2)C[C@H]1F [II-183]
Result string: 0.25 to 5 µM

Query string: Follow-up item: C=C(CN1CCN(c2nc(NCc3nc4cc(C)ccc4[nH]3)n3ncc(Br)c3n2)CC1)C(=O)Nc1cc(Nc2nccc(-c3cn(C)c4ccccc34)n2)c(OC)cc1N(C)CCN(C)C [II-188]
Result string: < 0.25 µM

Query string: Follow-up item: C=C(COc1ccc(Cl)cc1NC(=O)NCc1ccc2c(c1)CN(C1CCC(=O)NC1=O)C2=O)C(=O)N[C@@H]1CN(c2nc(Nc3cn(C)nc3OC)c3ncn(C)c3n2)C[C@H]1F (stereo partly shown) [Compound I-47]
Result string: 0.25 to 5 µM

Query string: Follow-up item: C=C(COC(=O)N1CCN(c2nc(NCc3nc4cc(C)ccc4[nH]3)n3ncc(Br)c3n2)CC1)C(=O)N1C[C@H](COc2nc(Nc3cnn(C)c3)nc3[nH]cc(Cl)c23)[C@@H](OC)C1 [II-185]
Result string: > 10 µM

Query string: Follow-up item: C=C(CN(C(=O)NCc1ccc2c(c1)CN(C1CCC(=O)NC1=O)C2=O)c1ccc(C)c(Cl)c1)C(=O)Nc1cccc(Oc2nc(Nc3ccc(N4CCN(C)CC4)cc3)nc3ccsc23)c1 (stereo not shown) [Compound I-70]
Result string: > 10 µM

Could I get EC50 for every one of these entries?
1. C=C(COc1cc(Cl)cc(NC(=O)NCc2ccc3c(c2)CN(C2CCC(=O)NC2=O)C3=O)c1)C(=O)Nc1cccc(Oc2nc(Nc3ccc(N4CCN(C)CC4)cc3)nc3ccsc23)c1 (stereo not shown) [Compound I-55]
2. C=C(COc1cc(Cl)cc(NC(=O)NCc2ccc3c(c2)CN(C2CCC(=O)NC2=O)C3=O)c1)C(=O)Nc1cc(Nc2nccc(-c3cn(C)c4ccccc34)n2)c(OC)cc1N(C)CCN(C)C (stereo not shown) [Compound I-59]
3. C=C(CN1C(=O)CCC(N2Cc3cc(CNC(=O)Nc4ccc(C)c(Cl)c4)ccc3C2=O)C1=O)C(=O)Nc1cc(Nc2ncc(-c3cn(C)c4ccccc34)cn2)c(OC)cc1N(C)CCN(C)C (stereo not shown) [Compound I-87]

Result string:
["> 10 µM", "0.25 to 5 µM", "< 0.25 µM"]
